- test.system: Mer (Homo sapiens, UniProt Q12866)
- Construct: purchased Eurofins Pharma Discovery Services (KinaseProfiler; Cerep BioPrint panel)
- Sequence (Q12866 21-999): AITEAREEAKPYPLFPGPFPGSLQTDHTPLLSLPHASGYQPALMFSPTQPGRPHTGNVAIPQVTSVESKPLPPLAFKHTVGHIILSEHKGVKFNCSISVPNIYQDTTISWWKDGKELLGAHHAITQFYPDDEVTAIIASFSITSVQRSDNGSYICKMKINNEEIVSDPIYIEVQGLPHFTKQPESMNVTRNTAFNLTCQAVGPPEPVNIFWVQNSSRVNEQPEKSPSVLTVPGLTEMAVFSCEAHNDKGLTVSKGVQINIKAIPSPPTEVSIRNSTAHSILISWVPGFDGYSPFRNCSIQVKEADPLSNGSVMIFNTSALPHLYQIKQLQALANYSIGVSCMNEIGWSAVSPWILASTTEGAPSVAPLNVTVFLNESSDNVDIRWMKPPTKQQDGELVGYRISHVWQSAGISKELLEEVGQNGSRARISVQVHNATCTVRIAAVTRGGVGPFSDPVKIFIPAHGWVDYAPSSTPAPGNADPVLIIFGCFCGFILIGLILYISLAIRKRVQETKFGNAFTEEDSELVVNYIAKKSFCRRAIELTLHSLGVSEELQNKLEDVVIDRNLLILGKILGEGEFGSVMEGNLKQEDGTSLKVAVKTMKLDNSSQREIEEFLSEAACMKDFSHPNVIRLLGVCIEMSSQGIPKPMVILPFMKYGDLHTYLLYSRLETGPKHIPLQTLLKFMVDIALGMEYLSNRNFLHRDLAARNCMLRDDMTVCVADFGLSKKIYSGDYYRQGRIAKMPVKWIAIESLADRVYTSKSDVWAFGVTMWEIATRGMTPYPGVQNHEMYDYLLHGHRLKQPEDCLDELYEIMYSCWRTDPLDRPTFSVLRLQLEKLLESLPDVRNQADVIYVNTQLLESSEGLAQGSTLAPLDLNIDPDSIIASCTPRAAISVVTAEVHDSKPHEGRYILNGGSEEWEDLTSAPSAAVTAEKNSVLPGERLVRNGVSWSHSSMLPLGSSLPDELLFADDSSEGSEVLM
- protocol.description: kinase selectivity panel
- Format: biochemical
- particulars: read-out: percentage of control activity (POC), Mer
reported.metric: remaining activity at 10 µM (%)

>>> print(df.to_string())
                                   compound                         test_system              reported_metric  recorded_value
0  CS(=O)(=O)N1CCN(c2ccc(Nc3ncc(C(N)=O)c(NC4CC4)n3)cc2)CC1  Mer (Homo sapiens, UniProt Q12866)  remaining activity at 10 µM               1
1  CC(C)(C)N1CCC(c2cc(-c3ccc(F)cc3Cl)c3cc[n+]([O-])c(-c4c(Cl)cccc4Cl)c3n2)CC1  Mer (Homo sapiens, UniProt Q12866)  remaining activity at 10 µM              95
2  Cc1ccc(C(=O)NCC2CC2)cc1-c1ccc2c(c1)NC(=O)C21CCCC1  Mer (Homo sapiens, UniProt Q12866)  remaining activity at 10 µM              96
3  COc1c(NC(=O)c2ccc(C)c(-c3nnc4c(NCC(C)(C)C)nccn34)c2)cc(C(C)(C)C)cc1NS(C)(=O)=O [compound 7, reference compound]  Mer (Homo sapiens, UniProt Q12866)  remaining activity at 10 µM             100
4  Cn1cc(-c2cccc(-c3nc(C(=O)NC4C5CC6CC4CC(O)(C6)C5)c(N)nc3N)c2)cn1 (centres unmarked)  Mer (Homo sapiens, UniProt Q12866)  remaining activity at 10 µM              74
